Tested on: Capan-1 cells (BRCA2-deficient)
Assay: Cell proliferation assay (CellTiter-Glo), Capan-1
Type: cell-based
Settings: Homo sapiens, CAPAN-1, light or radiation study; UV+, compound irradiated 20 min at 365 nm before addition to cells, 10 days incubation
parameter: IC50

Note IC50 for the compound shown: C[C@H](NC(=O)OC(C)(C)C)C(=O)OCc1cc2c(cc1[N+](=O)[O-])OCO2 [compound 6]
> 10 µM

* * *

System: Capan-1 cells (BRCA2-deficient)
Assay: Cell proliferation assay (CellTiter-Glo), Capan-1
Format: cell-based
Conditions: Homo sapiens, CAPAN-1, light or radiation study, 240 h; UV-, no irradiation, 10 days incubation
parameter: pIC50
Note on pIC50: it is the negative log10 of concentration, concentration in mol/L.

Cn1ncnc1[C@H]1c2nn(Cc3cc4c(cc3[N+](=O)[O-])OCO4)c(=O)c3cc(F)cc(c23)N[C@@H]1c1ccc(F)cc1 [compound 3] = 6.06

We now examine a further molecule.
Fill: pIC50 (Capan-1 cells (BRCA2-deficient)) for this molecule Cn1ncnc1[C@H]1c2n[nH]c(=O)c3cc(F)cc(c23)N[C@@H]1c1ccc(F)cc1 [Talazoparib, reference compound]
8.52
